biological target: Proline utilization A (BjPutA) (Bradyrhizobium diazoefficiens, UniProt Q89E26, R456M); construct: BjPutA R456M mutant (GSALDH activity measured); test: steady-state GSALDH kinetics (NADH formation at […] nm), global fit to competitive inhibition
Sequence (Q89E26 1-999, stated change not applied): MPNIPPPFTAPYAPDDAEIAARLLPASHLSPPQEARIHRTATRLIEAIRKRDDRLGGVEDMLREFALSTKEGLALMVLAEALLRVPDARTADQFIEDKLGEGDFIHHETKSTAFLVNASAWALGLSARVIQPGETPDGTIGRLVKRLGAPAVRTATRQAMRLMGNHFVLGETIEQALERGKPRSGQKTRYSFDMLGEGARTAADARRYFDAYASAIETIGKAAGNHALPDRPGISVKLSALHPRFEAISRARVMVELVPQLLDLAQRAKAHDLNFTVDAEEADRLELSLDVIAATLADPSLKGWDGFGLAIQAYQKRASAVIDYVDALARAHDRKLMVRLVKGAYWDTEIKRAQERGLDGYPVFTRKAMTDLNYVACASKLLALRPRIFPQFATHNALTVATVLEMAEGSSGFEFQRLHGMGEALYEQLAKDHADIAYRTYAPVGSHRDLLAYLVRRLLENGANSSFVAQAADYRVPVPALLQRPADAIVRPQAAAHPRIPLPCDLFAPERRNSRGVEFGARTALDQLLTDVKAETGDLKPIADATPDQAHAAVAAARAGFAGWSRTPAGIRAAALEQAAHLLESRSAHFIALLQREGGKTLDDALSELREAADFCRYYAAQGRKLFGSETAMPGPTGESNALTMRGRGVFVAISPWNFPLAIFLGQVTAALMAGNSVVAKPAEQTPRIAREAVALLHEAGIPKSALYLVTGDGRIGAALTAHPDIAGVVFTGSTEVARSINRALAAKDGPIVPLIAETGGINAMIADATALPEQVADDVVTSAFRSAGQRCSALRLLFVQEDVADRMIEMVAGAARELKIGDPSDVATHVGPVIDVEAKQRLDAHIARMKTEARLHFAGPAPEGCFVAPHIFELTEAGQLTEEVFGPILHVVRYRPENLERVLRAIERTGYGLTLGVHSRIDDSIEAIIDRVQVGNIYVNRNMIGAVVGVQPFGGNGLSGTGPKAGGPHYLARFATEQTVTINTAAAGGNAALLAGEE
readout_label: pKi
Please express pKi as -log10 of the molar concentration.

Request: Quick check: pKi of O=C(O)[C@@H]1CCCN1 ?
Result: 1.33
